meta.source: patent US20260159512A1

# measured target: BCAT2 (Homo sapiens, UniProt O15382)
# assay procedure: BCAT2 in vitro enzyme inhibition assay (resazurin/diaphorase-coupled fluorescence)
# Format: biochemical
# assay conditions: average where tested multiple times
test readout: IC50

Entry under review: O=C(N[C@H]1CCC[C@@H](n2c(-c3ccccc3F)nc3cnc(N4CCC(O)C4)cc32)C1)c1ncc(Cl)s1 (stereo partly drawn) . Reported IC50? ≤ 100 nM

Which IC50 is reported for this compound? O=C(N[C@H]1CCC[C@@H](n2c(Nc3ccccn3)nc3cnc(-n4nccn4)cc32)C1)c1ncc(C(F)F)s1 100 to 500 nM

Consider the compound CC(C)Cc1nc2cnc(-c3cccc(F)n3)cc2n1[C@H]1CCC[C@@H](NC(=O)c2ncc(Cl)s2)[C@@H]1O and give its measured IC50. > 1000 nM

Looking for the measured IC50 of O=C(NC1COCC(n2c(-c3ncccc3F)nc3cnc(-n4ccnn4)cc32)C1)c1ncc(C(F)F)s1 (single isomer, unassigned) [Example 145] , can you help? > 1000 nM

Data request, read-out IC50, for Cn1ccc(-c2nc3cnc(-n4ccnn4)cc3n2[C@@H]2CCC[C@H](NC(=O)c3ncc(C(F)F)s3)C2)n1 > 1000 nM

Entry under review: O=C(N[C@H]1C[C@@H](n2c(-c3ccccc3F)nc3cnc(-c4nc[nH]n4)cc32)CS(=O)(=O)C1)c1ccc(Cl)s1 . Reported IC50? 100 to 500 nM

Could you tell me which IC50 is on file for CO[C@@H]1C[C@@H](NC(=O)c2ncc(Cl)s2)C[C@@H](n2c(CC(C)C)nc3cnc(-c4ncccn4)cc32)C1 ? 500 to 1000 nM

* * *

# measured target: BCAT2 (Homo sapiens)
# Sequence (O15382 28-392): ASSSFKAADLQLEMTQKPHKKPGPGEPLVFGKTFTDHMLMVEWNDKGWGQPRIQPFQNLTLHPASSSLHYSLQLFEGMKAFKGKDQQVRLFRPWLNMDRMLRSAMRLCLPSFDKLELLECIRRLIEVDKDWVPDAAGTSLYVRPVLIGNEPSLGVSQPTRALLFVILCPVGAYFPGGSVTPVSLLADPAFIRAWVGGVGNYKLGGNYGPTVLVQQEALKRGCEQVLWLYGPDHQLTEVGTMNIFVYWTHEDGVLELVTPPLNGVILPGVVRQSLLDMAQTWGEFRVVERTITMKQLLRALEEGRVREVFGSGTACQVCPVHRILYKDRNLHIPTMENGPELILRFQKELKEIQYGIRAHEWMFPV
# assay procedure: BCAT2 in vitro enzyme inhibition assay (resazurin/diaphorase-coupled fluorescence)
# Format: biochemical
# assay conditions: average where tested multiple times
pIC50: −log10 of the molar value.
test readout: pIC50

Illustrative cases are given below, each with its answer.
CN1C[C@@H](NC(=O)c2ccc(Cl)s2)C[C@@H](n2c(-c3ccccc3F)nc3cnc(-c4nc[nH]n4)cc32)C1	6.30 to 7.00
Cc1nc2cnc(-n3ccnn3)cc2n1[C@@H]1CCC[C@H](NC(=O)c2ccc(Br)s2)C1	< 6.00
Nc1cc2c(cn1)nc(-c1ccccc1F)n2[C@H]1C[C@H](O)C[C@@H](NC(=O)c2ncc(Cl)s2)C1	< 6.00
CC(C)Cc1nc2cnc(-c3ccccn3)cc2n1[C@@H]1C[C@H](NC(=O)c2ncc(Cl)s2)CN(C)C1	< 6.00
O=C(N[C@H]1CCC[C@@H](n2c(-c3ccccc3F)nc3cnc(-n4ccnn4)cc32)C1)c1ncc(C(F)F)s1	≥ 7.00
CC(C)(C)Cc1nc2cnc(-n3nccn3)cc2n1[C@@H]1CCC[C@H](NC(=O)c2ccc(Cl)s2)[C@H]1O	≥ 7.00
O=C(N[C@H]1CCC[C@@H](n2c(-c3ncccc3F)nc3cnc(-n4nccn4)nc32)C1)c1ncc(C(F)F)s1	≥ 7.00
CC(C)Cc1nc2cnc(-n3cc(F)cn3)cc2n1[C@@H]1CCC[C@H](NC(=O)c2ncc(Cl)s2)[C@H]1O	≥ 7.00

Reported pIC50 for CC(C)Cc1nc2cnc(N3CCC[C@@H]3C(N)=O)cc2n1[C@@H]1CCC[C@H](NC(=O)c2ncc(Cl)s2)C1 : what is it? < 6.00

Any idea what its pIC50 is? The compound is O=C(N[C@H]1CCC[C@@H](n2c(CC3(C(F)(F)F)CC3)nc3cnc(-c4nc[nH]n4)cc32)C1)c1ncc(Cl)s1 ≥ 7.00

// returns reported pIC50 for input O=C(N[C@H]1CCC[C@@H](n2c(-c3ncccc3F)nc3cnc(-n4ccnn4)cc32)C1)c1ccc(Br)s1 ≥ 7.00

# pIC50 lookup, item CC1(O)[C@@H](NC(=O)c2ncc(Cl)s2)CCC[C@H]1n1c(-c2ccccc2F)nc2cnc(-c3nc[nH]n3)cc21 (single isomer, unassigned) ≥ 7.00

Tell me the measured pIC50 of O=C(N[C@H]1C[C@H](O)C[C@@H](n2c(-c3ccccc3F)nc3cnc(-c4ccccn4)cc32)C1)c1ncc(Cl)s1 (single isomer, unassigned) , please. ≥ 7.00

* * *

Each entry below carries its reported IC50.
# measured target: BCAT2 (Homo sapiens)
# Sequence (O15382 28-392): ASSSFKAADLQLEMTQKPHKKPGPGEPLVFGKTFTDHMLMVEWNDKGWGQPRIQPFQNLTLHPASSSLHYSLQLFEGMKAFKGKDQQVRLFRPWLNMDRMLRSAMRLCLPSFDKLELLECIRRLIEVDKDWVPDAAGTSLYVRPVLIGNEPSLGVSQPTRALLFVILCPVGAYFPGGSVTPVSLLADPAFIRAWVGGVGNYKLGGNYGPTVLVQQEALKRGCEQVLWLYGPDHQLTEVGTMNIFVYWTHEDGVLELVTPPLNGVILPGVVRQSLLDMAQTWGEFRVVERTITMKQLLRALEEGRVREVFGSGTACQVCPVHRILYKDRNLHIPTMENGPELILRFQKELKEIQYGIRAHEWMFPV
# assay procedure: BCAT2 in vitro cell inhibition using engineered A549 cells (KMV cell assay, 13C6-KMV by LC-MS/MS)
# Format: cell-based
# Design: The result was an engineered A549 cell line that expressed endogenous BCAT2; endogenous in cells; host or cells: A549 cells with MUT and BCAT1 knocked out by CRISPR/CAS9
# assay conditions: average where tested multiple times

O=C(N[C@H]1CCC[C@@H](n2c(-c3c(O)cccc3F)nc3cnc(-c4nc[nH]n4)cc32)C1)c1ncc(Cl)s1	≤ 0.1 µM
CC(C)C(O)c1nc2cnc(-c3nc[nH]n3)cc2n1[C@@H]1CCC[C@H](NC(=O)c2ncc(Cl)s2)C1 (single isomer, unassigned) [Example 183]	0.1 to 0.5 µM
CC(=O)N1CC(NC(=O)c2ncc(C(F)F)s2)CC(n2c(-c3ncccc3F)nc3cnc(-n4ccnn4)cc32)C1 (centres unmarked)	> 1 µM
O=C(N[C@H]1CCC[C@@H](n2c(-c3ccccn3)nc3cnc(-c4nc[nH]n4)cc32)C1)c1ncc(Cl)s1	≤ 0.1 µM
CC(=O)N1C[C@@H](NC(=O)c2ncc(C(F)F)s2)C[C@@H](n2c(-c3ccccc3F)nc3cnc(-c4ncco4)cc32)C1	> 1 µM
O=C(N[C@@H]1C[C@H](n2c(-c3ccccc3F)nc3cnc(-c4nc[nH]n4)cc32)CS(=O)(=O)C1)c1ccc(Cl)s1	> 1 µM

Find IC50 (BCAT2 (Homo sapiens)) for the entry O=C(N[C@H]1CCC[C@@H](n2c(-c3ncccc3F)nc3cnc(-n4nccn4)cc32)C1)c1ncc(Br)s1 ≤ 0.1 µM

Short answer please: IC50, BCAT2 (Homo sapiens), entry COc1cccc(F)c1-c1nc2cnc(-c3nc[nH]n3)cc2n1[C@@H]1CCCC[C@H](NC(=O)c2ccc(Cl)s2)[C@H]1O ≤ 0.1 µM

* * *

# measured target: BCAT2 (Homo sapiens, UniProt O15382)
# assay procedure: BCAT2 in vitro enzyme inhibition assay (resazurin/diaphorase-coupled fluorescence)
# Assay type: biochemical
# assay conditions: average where tested multiple times
# Method: BCAT2 In Vitro Enzyme Inhibition Assay 1.67× hBCAT2 Enzyme Mix: 0.33 μg/mL hBCAT2, 1× Buffer 2.5× Substrate Mix: 460 μM L-leucine, 420 μM α-KetoGlutarate, 10 U/mL glutamate dehydrogenase, 10 mM NAD, 30 μg/mL diaphorase, 20 μm Resazurin BCAT2 enzyme stock solution was diluted to prepare a 1.67× hBCAT2 Enzyme Mix. […] Reactions were quenched after one hour by the addition of 25 μL of 6% SDS and reaction progress was measured via fluorescence read (Ex 540/Em 590). […]
pIC50: −log10 of the molar value.
test readout: pIC50

Cn1ccc(-c2cc3c(cn2)nc(-c2ccccc2F)n3[C@@H]2CCC[C@H](NC(=O)c3ncc(Cl)s3)C2)n1	≥ 7.00

# returns recorded pIC50 (system: BCAT2 (Homo sapiens, UniProt O15382)) for O=C(N[C@H]1CCC[C@@H](n2c(-c3ccccc3F)nc3cnc(N4CCCC4CO)cc32)C1)c1ncc(Cl)s1 (stereo partly drawn) ≥ 7.00

// fetch BCAT2 (Homo sapiens, UniProt O15382) pIC50 for O=C(N[C@H]1CCC[C@@H](n2c(-c3ccccc3F)nc3cnc(N4CCC4)cc32)C1)c1ccc(Br)s1 < 6.00
